Overview of recorded log10 of IC50 for various compounds
- TARGET_DESC: human TLR8 (Homo sapiens)
- Sequence (Q9NR97 27-1041): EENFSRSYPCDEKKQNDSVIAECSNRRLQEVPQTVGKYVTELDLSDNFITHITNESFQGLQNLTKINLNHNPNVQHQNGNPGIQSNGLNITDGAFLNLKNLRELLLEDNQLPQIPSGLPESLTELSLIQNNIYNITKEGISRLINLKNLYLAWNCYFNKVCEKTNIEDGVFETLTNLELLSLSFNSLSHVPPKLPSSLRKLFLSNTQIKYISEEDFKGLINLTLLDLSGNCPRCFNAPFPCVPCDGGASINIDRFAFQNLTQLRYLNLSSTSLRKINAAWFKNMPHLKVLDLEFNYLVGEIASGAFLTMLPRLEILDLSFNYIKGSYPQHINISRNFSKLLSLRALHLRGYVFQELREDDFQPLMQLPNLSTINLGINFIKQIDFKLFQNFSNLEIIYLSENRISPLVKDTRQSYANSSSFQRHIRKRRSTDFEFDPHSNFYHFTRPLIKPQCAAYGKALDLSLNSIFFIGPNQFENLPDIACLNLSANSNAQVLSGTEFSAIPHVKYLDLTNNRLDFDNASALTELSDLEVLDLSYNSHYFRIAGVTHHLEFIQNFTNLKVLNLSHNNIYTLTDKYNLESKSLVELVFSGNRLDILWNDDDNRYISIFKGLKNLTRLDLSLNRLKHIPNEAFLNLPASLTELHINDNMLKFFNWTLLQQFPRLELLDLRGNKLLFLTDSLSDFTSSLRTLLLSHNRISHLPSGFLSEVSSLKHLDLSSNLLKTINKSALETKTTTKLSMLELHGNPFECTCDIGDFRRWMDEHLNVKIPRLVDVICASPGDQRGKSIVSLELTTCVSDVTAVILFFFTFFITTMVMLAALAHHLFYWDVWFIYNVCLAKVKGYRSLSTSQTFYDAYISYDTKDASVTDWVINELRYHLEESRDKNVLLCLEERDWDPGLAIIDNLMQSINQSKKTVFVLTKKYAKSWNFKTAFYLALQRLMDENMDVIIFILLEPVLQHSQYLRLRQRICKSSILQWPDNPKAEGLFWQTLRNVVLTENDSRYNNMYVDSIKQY
- TEST_PROTOCOL: TLR8 inhibition reporter assay (HEK-Blue cells, SEAP reporter, R848 stimulation)
- MEASUREMENT_CONTEXT: HEK-Blue cells overexpressing human TLR8, SEAP reporter, R848 15.9 μM
- Description: TLR7/8/9 Inhibition Reporter Assays HEK-Blue™-cells (Invivogen) overexpressing human TLR7, TLR8 or TLR9 receptors were used for screening inhibitors of these receptors using an inducible SEAP (secreted embryonic alkaline phosphatase) reporter gene under the control of the IFN-β minimal promoter fused to five NF-κB and AP-1-binding sites. […]
Could you please treat all values as log10 of IC50 in nM?

compound="COCCN(C)C1CCC(c2ccc3[nH]c(-c4cc(OC)c5ncnn5c4)c(C(C)C)c3c2)CC1 (single isomer, unassigned) [Example 79]" metric_name="log10 of IC50" endpoint_result=0.76
compound="Cc1c(-c2[nH]c3ccc(C4CN(C(C)C)C4)cc3c2C(C)C)cn2cnnc2c1C [Example 534]" metric_name="log10 of IC50" endpoint_result=1.45
compound="Cc1cc(-c2[nH]c3ccc(C4CN(CC(C)(C)O)CCO4)cc3c2C(C)C)cn2ncnc12 (stereo not shown) [Example 355]" metric_name="log10 of IC50" endpoint_result=0.15
compound="Cc1c(-c2[nH]c3ccc(C4CC(NC(=O)CN(C)C)C4)cc3c2C(C)C)cn(C)c(=O)c1C (stereo not shown) [Example 490]" metric_name="log10 of IC50" endpoint_result=0.00
compound="CNC(=O)CN1CCCC(c2ccc3[nH]c(-c4cn5ncnc5c(C)c4C)c(C(C)C)c3c2)C1 (stereo not shown) [Example 231]" metric_name="log10 of IC50" endpoint_result=0.66
compound="CNC(=O)CN1CC(c2ccc3[nH]c(-c4cn5ncnc5c(C)c4C)c(C(C)C)c3c2)C1 [Example 552]" metric_name="log10 of IC50" endpoint_result=0.53

What log10 of IC50 appears in the records for this compound with human TLR8 (Homo sapiens)? CCc1c(-c2ccc(OC)c(OC)c2)[nH]c2ccc(CN3CC4CN(C(C)C)CC4C3)cc12 (stereo not shown) [Example 392]
2.74
